System: HOP-18 NSCLC
assayDetails: NCI tumour cell line growth inhibition, 48 h
valueKind: TGI

Exercise: Please look at this molecule and report its TGI: CC(=O)OCc1cc(OC(C)=O)cnc1COC(C)=O
Key: > 100 µM

Exercise: Please look at this molecule and report its TGI: CC(=O)Nc1ccc(C(=O)NN2C(=O)C(Cl)C2c2cc(Br)ccc2O)cc1 (configuration not stated)
Key: 62 µM

###

Tested on: NCI-H460 lung
Where a SMILES comes first, the peptide text is derived from it.
Allowed answers: class 1 = active, class 0 = inactive

Solved cases (5 shown):
O=c1cc(-c2ccc(Cl)cc2)[nH]c2ncccc12; class 0
S=c1nc2[nH]ncc2c(N/N=C/c2ccccc2)[nH]1; class 0
CCOC(=O)c1c(-c2ccccc2)[n+](=O)c2ccc(Cl)cc2n1[O-]; class 0
Cc1c2c(nn1C(=O)c1nn(-c3ccc(Cl)cc3)cc1O)-c1ccccc1CC2; class 1
O=C1c2cc3c(cc2-c2c1c1ccc(Cl)cc1c(=O)n2C[C@H](O)[C@@H](O)[C@H](O)CO)OCO3; class 1

Exercise: Tell me the recorded outcome of this test for CCOC(=O)c1c(C)nc2ccc(Cl)cc2c1-c1ccccc1 .
Key: class 0

Exercise: Tell me the recorded outcome of this test for CC(C)CC(NC(=O)C(CC(C)C)NC(=O)C(Cc1cnc[nH]1)NC(=O)C(C)NC(=O)C(NC(=O)C(C)NC(=O)C(Cc1c[nH]c2ccccc12)NC(=O)C(CCC(=O)O)NC(=O)C(N)Cc1ccccc1)C(C)C)C(N)=O (stereo not drawn) (H-FEWAVAHLL-NH2; configuration not given here) .
Key: class 0

Exercise: Tell me the recorded outcome of this test for CN1CCC[C@@H]1CCO[C@](C)(c1ccccc1)c1ccc(Cl)cc1 .
Key: class 0

###

Tested on: ACHN renal
assayDetails: NCI tumour cell line growth inhibition, 48 h
As shown below, each of these compounds has a reported TGI value.

OC(c1cccnc1)C(F)(F)c1nc2ccccc2o1 (stereo unspecified); > 100 µM
CN(C)CCCN(c1nc(C(Cl)(Cl)Cl)ns1)c1nc(C(Cl)(Cl)Cl)ns1; 3.53 µM
O=C(O)C(Cc1c[nH]c2ccccc12)N=Cc1nc(-c2ccccc2)oc1O (stereo unspecified); > 100 µM
O=C1C(=O)N(C(=O)c2ccc(Cl)c(Cl)c2)c2ccc(Cl)cc21; > 100 µM
Cn1cccc1-c1cc(-c2cccs2)[nH]c(=O)c1C#N; > 100 µM

Exercise: # lookup: ACHN renal TGI, key = C[C@]12CCC(=O)C=C1CC[C@@H]1[C@@H]2[C@@H](O)C[C@@]2(C)[C@H]1CC[C@]2(O)C(=O)CO
Key: > 100 µM

Exercise: # lookup: ACHN renal TGI, key = CCOC(=O)c1c(C)nc2ccc(Cl)cc2c1-c1ccccc1
Key: 35 µM

Exercise: # lookup: ACHN renal TGI, key = NC1CC(=O)c2c(Cl)sc(Cl)c21 (stereo unspecified)
Key: 6.14 µM

Exercise: # lookup: ACHN renal TGI, key = O=C1C(=O)c2ccccc2-c2ccccc21
Key: 2.84 µM

Exercise: # lookup: ACHN renal TGI, key = CC(=O)CCNc1ccc(-c2cc(-c3ccc(N(C)C)cc3)nc3ccc4ccccc4c23)cc1
Key: > 100 µM

Exercise: # lookup: ACHN renal TGI, key = CCCCCCCCCCCCn1c(=O)cc(NCCCC)c2cc3c(NCCCC)cc(=O)n(CCCCCCCCCCCC)c3nc21
Key: > 100 µM

###

Tested on: MDA-MB-231 breast
valueKind: GI50

Answered examples (3):
O=C1/C(=C\C(Cl)=C/c2ccc([N+](=O)[O-])cc2)SC(=S)N1CCc1ccc(O)cc1; 0.449 µM
Cc1cccc2c(N=Nc3ccc(S(N)(=O)=O)cc3)c(O)[nH]c12; > 25 µM
O=C(Nc1nccs1)c1cc2c(cc1Cl)Sc1nccn1S2(=O)=O; 19.5 µM

Now, please, on to the next compound.
Exercise: Please look at this compound and report its GI50: CCOC(=O)c1c(-c2ccccc2)[n+](=O)c2ccc(Cl)cc2n1[O-]
Key: 3.58 µM

###

As shown below, each of these compounds has a reported TGI value.
Tested on: IGROV1 ovarian
assayDetails: NCI tumour cell line growth inhibition, 48 h
Where a SMILES comes first, the peptide text is derived from it. [ ]: non-standard residue; d: D form. The star is where a group is joined. ξ: configuration not given here. dThr(3ξ) = CC(O)[C@@H](N)C(=O)O; dNMeL = CN[C@H](CC(C)C)C(=O)O; OBn = c1ccc(CO*)cc1; ξLac = CC(O)C(=O)O

Answered examples (5):
CC(=O)OC(C)[C@@H](NC(=O)[C@@H](CC(C)C)N(C)C(=O)[C@@H]1CCCN1C(=O)C(C)O)C(=O)OCc1ccccc1 (stereo partly drawn) (H-[ξLac]P[dNMeL][dThr(3ξ)](Ac)-OBn); > 100 µM
N#Cc1c(-c2ccccc2)c(N=Nc2ccc(F)cc2)c(=O)n2c1[nH]c1ccccc12; 35.7 µM
CN(C)C(=O)/N=c1\ss/c(=N\C(=S)N(C)C)n1-c1ccccc1; > 100 µM
O=C(O)C(CSC(c1ccccc1)(c1ccccc1)c1ccccc1)N=Cc1cccs1 (stereo not drawn); > 100 µM
Cc1cc(O)c(C(C)C)cc1CN1CCCCC1; > 100 µM

Now, please, on to the next compound.
Exercise: Please look at this compound and report its TGI: COC(=O)C1=NN2c3ccccc3C(=O)OCCC2(C)C1 (stereo not drawn)
Key: > 100 µM

###

As shown below, each of these compounds has a reported TGI value.
System: MALME-3M melanoma
assayDetails: NCI tumour cell line growth inhibition, 48 h

COC(=O)[C@@H]1C[C@H]([Se]c2ccccc2)CN1S(=O)(=O)c1ccc(C)cc1; > 100 µM
CCC(C)OC(=O)C1C2CCC(O2)C1C(=O)O (configuration not stated); > 100 µM
N#CC(=S)Nc1ccc(Cl)c(Cl)c1; > 54.7 µM
CSC(=NCCCCN=C(NS(=O)(=O)c1ccc(Cl)cc1)SC)NS(=O)(=O)c1ccc(Cl)cc1; > 100 µM
Cc1ccccc1NC(=O)C(=O)C(c1cnc2ccc([N+](=O)[O-])cc2n1)[N+](=O)[O-] (configuration not stated); > 100 µM
O=C(O)C(Cc1c[nH]c2ccccc12)N=Cc1nc(-c2ccccc2)oc1O (configuration not stated); > 100 µM

Now, please, on to the next compound.
Exercise: Please look at this compound and report its TGI: O=c1c2cc([N+](=O)[O-])ccc2n(Cc2ccccc2)n1Cc1ccccc1
Key: > 31.6 µM

###

As shown below, each of these molecules has a reported TGI value.
System: HT29 colon
assayDetails: NCI tumour cell line growth inhibition, 48 h

Answered examples (5):
COc1ccc(C(=O)N2CCc3c([nH]c4ccccc34)C2C(=O)O)o1 (stereo unspecified); > 10 µM
Cn1c(=O)[nH]c2[nH]c3ccccc3c2c1=O; > 100 µM
CN(CCCNC(=O)c1cn(C)c2c1ccc1cc(Cl)c(Cl)cc12)CCCNC(=O)c1cn(C)c2c1ccc1cc(Cl)c(Cl)cc12; 29.4 µM
N.N.N.N.N.N.[I-].[Os]; > 100 µM
COc1cccc2c(NNc3ccccc3)c3ccc([N+](=O)[O-])cc3nc12; > 100 µM

Exercise: Please look at this molecule and report its TGI: O=C(NCc1ccccc1)c1cc2cc(O)c(O)cc2cn1
Key: 70.4 µM

###

Test system: KM12 colon
valueKind: GI50

COc1ccc(/C(C)=C(\c2ccc(Cl)cc2)c2ccc(OCCN3CCCC3)cc2)cc1F; 1260 nM
COc1cc2ccc3c4c(OC)cc(OC)c(OC)c4c(=O)n(C)c3c2cc1OC; 548 nM
CCOC(=O)/C(=C/c1ccc([N+](=O)[O-])cc1)C(=O)c1ccccc1; 2160 nM

Exercise: Please look at this molecule and report its GI50: N.N.N.N.N.N.[I-].[Os]
Key: > 100000 nM

###

System: 786-0 renal
assayDetails: NCI tumour cell line growth inhibition, 48 h
valueKind: TGI (µM)
Give the value, in units of µM, as a plain number.

Answered examples (2):
Nc1nc(N)c2c(n1)NC(c1ccccc1)CC(/C=C/c1ccc(Cl)cc1)=N2 (configuration not stated); 12
Cc1cc2c(c(C=Nc3ccc([N+](=O)[O-])cc3)c1)OC1(C=C2)Oc2ccccc2C(=O)N1C (configuration not stated); 54.3

Now, please, on to the next compound.
Exercise: # lookup: 786-0 renal TGI, key = Cn1c(=O)c2c(no[n+]2[O-])n(C)c1=O
Key: 71.8

###

Test system: UO-31 renal
assayDetails: NCI tumour cell line growth inhibition, 48 h
valueKind: TGI

Cc1cc2c(cc1Cl)SC(N/N=C(\N)c1ccc(Cl)cc1)=NS2(=O)=O; > 100 µM
CN1C2CCC1C(C(O)c1ccccc1[N+](=O)[O-])C(=O)C2 (centres undefined); > 100 µM
COC(=O)N/N=C(/CCN1CCCC1)CC(c1ccccc1)c1c(O)c2ccccc2oc1=O (centres undefined); > 100 µM

Now, please, on to the next compound.
Exercise: # lookup: UO-31 renal TGI, key = CCOC(=O)/C(=C\NCC(OCC)OCC)c1nc2ccccc2[nH]1
Key: > 100 µM
